Every entry's value here was drawn from the NIST ThermoML archive (doi:10.1021/je0341357).

condition.description: Liquid; Visual observation in an unstirred cell
outcome.measure: Critical temperature (K)

CCCCCC(C)N (stereo unspecified)
598
CCCCCCNC
592
C=C(C)C(C)CC (stereo unspecified)
533.6
C/C=C/CCC [(E)-2-hexene]
509
C=C(C)C(C)C
497.7
CCC1CCCCC1
606.9
CCCC1CCCCC1
630.8
CC(C)CC1CCCCC1
642.1
C=C(C)CCCCC
567.5
C1CCCCC1
553.6
CC(C)=C(C)C
521

* * *

condition.description: Liquid; Visual observation in an unstirred cell
outcome.measure: Critical temperature (K)

C1CCCCCCC1
647.5
CC(C)N
472.5
C/C=C\C(C)C [(Z)-4-methyl-2-pentene]
496.3
CCCNCCC
555.8
CCC/C=C/CCC [(E)-4-octene]
566.3
C=C(C)CCCC
541.8
C=CCC(C)C
493.1
CCCCCCN
592.3
CCCCC1CCCCC1
653.1
CC(C)C1CCCCC1
632.2
CC/C=C/CCC [3-heptene, (E)-]
538.6
CCCCC=C(C)C
568.9
C=CC(C)(C)C
477.4
C=CCCC(C)C
528.7
C/C=C\CCCC [2-heptene, (Z)-]
548.5
CCCCNCCCC
607.5
CC/C=C/CC [(E)-3-hexene]
507.4
CCCN
499.2
C/C=C\CCC [(Z)-2-hexene]
513.4
NC1CCCCC1
626.8
C/C=C/CCCCC [(E)-2-octene]
569.8
C=CCC(C)(C)C
516
CC/C=C\CC [(Z)-3-hexene]
510.2
CCC=C(C)C
509.3
C=C(C)CCC
521
C/C=C/CCCC [2-heptene, (E)-]
542.8
CC(C)(C)C1CCCCC1
652
C=C(C)CC
467
